As shown below, each of these compounds has a reported growth inhibition value.
- TEST DESCRIPTION: NCI Yeast Anticancer Drug Screen. Data for the bub3 strain (AID 167)
- ASSAY CONDITIONS: S. cerevisiae bub3 mutant strain, at 50.0 µM, stronger effect = higher value
Compounds without any hit were thinned out: in the full panel of roughly 79,000, 15% have a hit.

{"columns": ["COMPOUND", "growth inhibition [%]"],
 "data": [
  ["CSCCC(NC(=O)C(CCSC)NS(=O)(=O)Cc1ccccc1)C(=O)O (stereo unspecified)", 99.2],
  ["CC(C)C[NH-].CC(C)C[NH-].[Cl][Pt+2]([Cl])([Cl])[Cl]", 89.5],
  ["COC(=O)C1=C(CS(=O)c2ccccc2[N+](=O)[O-])ON(C)C1c1ccccc1 (stereo unspecified)", 59.4],
  ["CCc1cccc(C)c1NC(=O)C(=O)C(C#N)c1ccc(C)cc1 (stereo unspecified)", 16.1],
  ["CC(C)OC(=O)c1ccccc1C(=C1C=C(Br)C(=O)C(Br)=C1)c1cc(Br)c(O)c(Br)c1", 91],
  ["CCCCCCCCCCCC(=O)OCCCCC", 80.6],
  ["CCCCC#CC(=O)OCCC", -22.4],
  ["COc1ccc2nc3cc(Cl)ccc3c(Nc3nccs3)c2c1", 94.5],
  ["CC(=O)CC1(O)C(=O)Nc2ccc(Br)cc21 (stereo unspecified)", 0.8],
  ["C=CCCCCCCCCC(=O)ON(Cc1ccc(O)c(OC)c1)C(=O)C(F)(F)F", 90.5],
  ["O=[N+]([O-])c1ccc(S)c(Cl)c1", 87.2]
]}

Values were extracted from PubChem BioAssay (NCI).
